System: MCF-7
Assay: cells
Conditions: Homo sapiens, MCF7, 72 h, read-out: Mean IC50 ± SD, MCF-7
Method: The peptides were studied for antiproliferative activity with an MTT-dye reduction assay. Cell cultures were incubated with the test peptides in twofold increasing concentrations (from 2 to 500 μM) for 72 h. The antiproliferative activity of the peptides was determined in normal epithelial cells (MCF-12F) and tumor cells (MCF-7 and MDA-MB-231) by MTT-assay. […] The optical density of the formazan was measured at λ = 540 nm using a microplate reader. […]
Endpoint: IC50 (nM)
Write it as a number; the unit nM goes unstated.

Returns the measured IC50 for the input compound. Input: COc1cccc2c1C(=O)c1c(O)c3c(c(O)c1C2=O)C[C@@](O)(C(=O)CO)C[C@@H]3O[C@H]1C[C@H](N)[C@H](O)[C@H](C)O1 [Doxorubicin, reference compound]
680
